tested on: THRa homodimer (NR concentration 90 nM); test: PBM binding z-score (relative to random genomic background probes); higher = stronger binding; sequences stand for … in GC…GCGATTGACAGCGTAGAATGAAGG
measure: PBM binding z-score

q: Which PBM binding z-score value belongs to `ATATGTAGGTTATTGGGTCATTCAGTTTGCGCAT` ?
a: 2.41

q: // PBM binding z-score lookup, key: `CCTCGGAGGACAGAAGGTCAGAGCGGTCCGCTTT`
a: -0.136

q: GET /values?readout=PBM binding z-score&item= `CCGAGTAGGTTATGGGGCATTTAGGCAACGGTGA`
a: 0.289

q: Item under review: `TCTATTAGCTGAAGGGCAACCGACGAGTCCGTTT` . Reported PBM binding z-score?
a: -0.551

q: Which PBM binding z-score reading was recorded for the sequence `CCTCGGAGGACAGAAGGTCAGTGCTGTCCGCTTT` ?
a: -0.0278

q: Form field: reported PBM binding z-score of `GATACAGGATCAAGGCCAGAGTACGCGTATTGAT`
a: -0.214

q: Entry under review: `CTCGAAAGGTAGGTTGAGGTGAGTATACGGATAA` . Reported PBM binding z-score?
a: 1.24

q: Item under review: `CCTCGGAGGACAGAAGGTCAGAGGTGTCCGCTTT` . Reported PBM binding z-score?
a: -0.0182

q: Which value of PBM binding z-score has been reported for `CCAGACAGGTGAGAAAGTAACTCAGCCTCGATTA` in the records?
a: -0.123

q: What value of PBM binding z-score has been recorded for this entry: `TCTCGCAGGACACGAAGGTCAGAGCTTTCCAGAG`
a: 0.377

q: Form field: reported PBM binding z-score of `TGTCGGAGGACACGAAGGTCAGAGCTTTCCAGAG`
a: 0.651

q: Consider the sequence shown here: `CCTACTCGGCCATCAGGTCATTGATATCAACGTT` What is its recorded PBM binding z-score?
a: 3.66

q: Give its PBM binding z-score value. Item: `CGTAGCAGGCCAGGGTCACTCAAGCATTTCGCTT`
a: 1.33

q: Please report the recorded PBM binding z-score for `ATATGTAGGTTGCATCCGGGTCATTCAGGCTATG` .
a: 1.96

q: Look up PBM binding z-score for this sequence: `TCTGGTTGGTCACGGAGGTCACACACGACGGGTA`
a: 2.93

q: # PBM binding z-score lookup, item `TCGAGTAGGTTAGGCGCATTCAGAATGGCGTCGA`
a: -0.996

###

tested on: PPARg:RXRa IVT, anti-PPARg (NR concentration 270 nM, RXRa partner concentration 90 nM); experiment: PBM binding z-score (relative to random genomic background probes); higher = stronger binding; sequences stand for … in GC…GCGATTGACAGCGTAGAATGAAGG
Hi there, I'd appreciate the recorded PBM binding z-score for every entry that follows.
The answer should be a number; do not append a unit.

q: Item `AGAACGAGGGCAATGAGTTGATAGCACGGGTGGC` has what recorded PBM binding z-score?
a: 2.48

q: Any idea what its PBM binding z-score is? The sequence is `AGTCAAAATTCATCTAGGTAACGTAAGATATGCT`
a: 2.03

q: What does the data say about its PBM binding z-score? Entry: `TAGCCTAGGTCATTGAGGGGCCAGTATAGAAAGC`
a: 2.84

q: Reported PBM binding z-score for `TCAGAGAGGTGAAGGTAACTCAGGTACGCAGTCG` : what is it?
a: 2.38

q: What PBM binding z-score value was documented for this sequence, `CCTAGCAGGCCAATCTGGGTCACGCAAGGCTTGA` ?
a: 5.54

q: Bench note: what PBM binding z-score did `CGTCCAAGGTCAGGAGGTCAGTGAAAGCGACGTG` show?
a: 3.93

q: Consider the sequence shown here: `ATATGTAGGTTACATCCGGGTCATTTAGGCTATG` What is its recorded PBM binding z-score?
a: 7.5

q: Data request, read-out PBM binding z-score, for `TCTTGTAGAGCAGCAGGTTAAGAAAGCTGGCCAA`
a: 0.666
